The origin of these recorded values is patent US8975265B2.

Target: His-tagged human recombinant kinase full-length Akt1 (Homo sapiens (Human), UniProt P31749)
Sequence (P31749 whole entry): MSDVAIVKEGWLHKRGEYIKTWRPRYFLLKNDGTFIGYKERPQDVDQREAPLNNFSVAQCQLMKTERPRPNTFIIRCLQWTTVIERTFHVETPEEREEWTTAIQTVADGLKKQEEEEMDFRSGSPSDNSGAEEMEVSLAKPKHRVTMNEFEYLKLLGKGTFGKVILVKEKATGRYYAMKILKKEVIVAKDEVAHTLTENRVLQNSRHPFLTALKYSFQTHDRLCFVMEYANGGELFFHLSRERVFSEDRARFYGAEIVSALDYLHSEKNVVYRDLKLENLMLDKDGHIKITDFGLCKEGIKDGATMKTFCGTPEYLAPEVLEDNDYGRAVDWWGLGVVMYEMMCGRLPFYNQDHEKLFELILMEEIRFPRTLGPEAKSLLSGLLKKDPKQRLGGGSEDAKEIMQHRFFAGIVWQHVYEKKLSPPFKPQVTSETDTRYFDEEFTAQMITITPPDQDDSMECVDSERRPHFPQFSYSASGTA
Assay: Akt1 kinase assay (TR-FRET)
Details: 10 μM ATP; read-out: Akt1, median IC50
Kindly state pIC50 for each of the entries shown.
Scale for pIC50: -log10 of concentration given in mol/L; no unit attached.

GET /value?item= `Cc1cc(-c2cn[nH]c2)cn2c(-c3ccccc3)c(-c3ccc(C4(N)CCC4)cc3)nc12` &field=pIC50 returns 6.97

GET /value?item= `NC1(c2ccc(-c3nc4ccc(CO)cn4c3-c3ccccc3)cc2)CCC1` &field=pIC50 returns 6.30

GET /value?item= `NC(=O)CCc1ccn2c(-c3ccccc3)c(-c3ccc(C4(N)CCC4)cc3)nc2c1` &field=pIC50 returns 4.90

GET /value?item= `CC(=O)c1ccn2c(-c3ccccc3)c(-c3ccc(C4(N)CCC4)cc3)nc2c1` &field=pIC50 returns 6.76
